Data provenance is paper PMC4476283.

Listed below: Km values for each entry.
- study.system: OXA-225 (OXA-23 P225S) (Acinetobacter baumannii, UniProt Q9L4P2, P225S)
- assay.explanation: Steady-state kinetic analysis of β-lactam hydrolysis by OXA-225
- Type: biochemical
- condition.context: OXA-225; 50 mM NaH2PO4, 25 mM NaHCO3, pH 7.4, 25°C
Report as a plain number; the unit µM is understood.

Answered examples (3):
compound: CC(C)(O/N=C(\C(=O)N[C@@H]1C(=O)N2C(C(=O)[O-])=C(C[n+]3ccccc3)CS[C@H]12)c1csc(N)n1)C(=O)O [Ceftazidime, ceftazidime]
assay.readout: Km
measured.number: 1400

compound: CO/N=C(\C(=O)N[C@@H]1C(=O)N2C(C(=O)O)=C(COC(C)=O)CS[C@H]12)c1csc(N)n1 [Cefotaxime, cefotaxime]
assay.readout: Km
measured.number: 100

compound: C[C@H]1[C@H](NC(=O)/C(=N\OC(C)(C)C(=O)O)c2csc(N)n2)C(=O)N1S(=O)(=O)O [Aztreonam, aztreonam]
assay.readout: Km
measured.number: 13

Quick one: Km of CC1(C)S[C@@H]2[C@H](NC(=O)[C@H](N)c3ccccc3)C(=O)N2[C@H]1C(=O)O [Ampicillin, ampicillin] ? 12

---

- study.system: OXA-225 (OXA-23 P225S) (Acinetobacter baumannii, UniProt Q9L4P2, P225S)
- assay.explanation: Steady-state kinetic analysis of β-lactam hydrolysis by OXA-225
- Type: biochemical
- condition.context: OXA-225
Classification field: fulfilled = kcat at or over 1 s⁻¹; not fulfilled = kcat under 1 s⁻¹.

Would you please look over these solved cases?
smiles: C[C@H]1[C@H](NC(=O)/C(=N\OC(C)(C)C(=O)O)c2csc(N)n2)C(=O)N1S(=O)(=O)O
study.system: OXA-225 (OXA-23 P225S) (Acinetobacter baumannii, UniProt Q9L4P2, P225S)
category.label: not fulfilled
--
smiles: CC(C)(O/N=C(\C(=O)N[C@@H]1C(=O)N2C(C(=O)[O-])=C(C[n+]3ccccc3)CS[C@H]12)c1csc(N)n1)C(=O)O
study.system: OXA-225 (OXA-23 P225S) (Acinetobacter baumannii, UniProt Q9L4P2, P225S)
category.label: fulfilled
--
smiles: CO/N=C(\C(=O)N[C@@H]1C(=O)N2C(C(=O)O)=C(CSc3nc(=O)c(=O)[nH]n3C)CS[C@H]12)c1csc(N)n1
study.system: OXA-225 (OXA-23 P225S) (Acinetobacter baumannii, UniProt Q9L4P2, P225S)
category.label: not fulfilled
--
smiles: C[C@@H](O)[C@H]1C(=O)N2C(C(=O)O)=C(S[C@@H]3CN[C@H](CNS(N)(=O)=O)C3)[C@H](C)[C@H]12
study.system: OXA-225 (OXA-23 P225S) (Acinetobacter baumannii, UniProt Q9L4P2, P225S)
category.label: not fulfilled
--
smiles: C[C@@H](O)[C@H]1C(=O)N2C(C(=O)O)=C(SCCN=CN)C[C@H]12
study.system: OXA-225 (OXA-23 P225S) (Acinetobacter baumannii, UniProt Q9L4P2, P225S)
category.label: not fulfilled

Exam item: decide whether the reported kcat for CC1(C)S[C@@H]2[C@H](NC(=O)[C@H](N)c3ccccc3)C(=O)N2[C@H]1C(=O)O is at least 1 s⁻¹. fulfilled

Exam item: decide whether the reported kcat for CO/N=C(\C(=O)N[C@@H]1C(=O)N2C(C(=O)O)=C(COC(C)=O)CS[C@H]12)c1csc(N)n1 is at least 1 s⁻¹. fulfilled
